pIC50 reference
- Tested on: MGC-803
- assay text: CCK-8 tumor cell proliferation, MGC-803
- test parameters: Homo sapiens, Table 18, FAK inhibitor based, MGC803, read-out: IC50 inhibiting proliferation of tumor cells, MGC803
pIC50: −log10 of the molar value.

See these solved cases before continuing.
| molecule | pIC50 |
| --- | --- |
| CNC(=O)c1ccccc1Nc1cc(Nc2cc(C)c(N3CCC(N(C)Cc4cc5c(cc4F)C(=O)N(C4CCC(=O)NC4=O)C5)CC3)cc2OC(C)C)ncc1C(F)(F)F (stereo not shown) [GT-04092] | > 7.30 |
| CNC(=O)c1ccccc1Nc1cc(Nc2cc(C)c(N3CCN(Cc4cc5c(cc4F)C(=O)N(C4CCC(=O)NC4=O)C5)CC3)cc2OC(C)C)ncc1C(F)(F)F (stereo not shown) [GT-03942] | > 7.30 |

Let's switch to this molecule now.
Query: Report pIC50 for CNC(=O)c1ccccc1Nc1cc(Nc2cc(C)c(N3CCC(N(C)Cc4cc(F)c5c(c4)CN(C4CCC(=O)NC4=O)C5=O)CC3)cc2OC(C)C)ncc1C(F)(F)F (stereo not shown) [GT-04093] tested on MGC-803.
Response: > 7.30
